Biological target: Steroid 17-alpha-hydroxylase/17,20 lyase (Rattus norvegicus)
Test: Inhibition of rat microsomal 17-alpha-hydroxylase component of P450-17alpha
pIC50: −log10 of the molar value.
property: pIC50

Some solved cases for reference:
>>> recorded_value("Fc1cc(F)cc(Cn2ccnc2)c1")
4.08
>>> recorded_value("Fc1ccc(Cn2ccnc2)cc1")
4.06

(I) O=[N+]([O-])c1ccc(Cn2ccnc2)cc1
(II) Fc1ccc(Cn2ccnc2)cc1F
Query: Kindly compare I with II and tell me which has the lower pIC50 figure. Field: selected label. Fill in the label of the entry you choose.
Result: II
(II: 4.15, I: 4.60)

----------
Molecular target: Steroid 17-alpha-hydroxylase/17,20 lyase (Rattus norvegicus)
Sequence (P11715 whole entry): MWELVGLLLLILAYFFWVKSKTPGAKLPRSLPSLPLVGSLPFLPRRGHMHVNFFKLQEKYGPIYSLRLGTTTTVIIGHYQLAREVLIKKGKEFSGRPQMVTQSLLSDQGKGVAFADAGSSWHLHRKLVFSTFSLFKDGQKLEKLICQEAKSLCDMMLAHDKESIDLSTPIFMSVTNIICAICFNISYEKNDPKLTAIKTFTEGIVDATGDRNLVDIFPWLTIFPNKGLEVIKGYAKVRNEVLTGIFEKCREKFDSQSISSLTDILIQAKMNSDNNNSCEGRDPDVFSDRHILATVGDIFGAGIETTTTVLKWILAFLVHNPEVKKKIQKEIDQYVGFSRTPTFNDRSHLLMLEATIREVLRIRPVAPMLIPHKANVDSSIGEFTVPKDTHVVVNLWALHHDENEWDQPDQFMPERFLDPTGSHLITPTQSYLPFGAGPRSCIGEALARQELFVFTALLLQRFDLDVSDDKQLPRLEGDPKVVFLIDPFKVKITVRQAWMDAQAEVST
Experiment: Inhibition of rat microsomal 17,20-lyase component of P450-17alpha
pIC50: −log10 of the molar value.
property: pIC50

Some solved cases for reference:
>>> recorded_value("Fc1cc(F)cc(Cn2ccnc2)c1")
4.93
>>> recorded_value("Clc1ccc(Cn2ccnc2)cc1Cl")
5.68

(P) Oc1ccc(Cn2ccnc2)cc1
(Q) Ic1ccc(Cn2ccnc2)cc1
Query: Endpoint returns the identifier whose pIC50 is numerically larger, either P or Q . Field: selected label. Fill in the label of the entry you choose.
Result: Q

(1) Clc1ccc(Cn2ccnc2)cc1
(2) Cc1ccc(Cn2ccnc2)cc1
Query: Endpoint returns the identifier whose pIC50 is numerically larger, either 1 or 2 . Field: selected label. Fill in the label of the entry you choose.
Result: 1
(1: 5.55, 2: 5.06)

----------
Target: Steroid 17-alpha-hydroxylase/17,20 lyase (Rattus norvegicus, UniProt P11715)
Sequence (P11715 whole entry): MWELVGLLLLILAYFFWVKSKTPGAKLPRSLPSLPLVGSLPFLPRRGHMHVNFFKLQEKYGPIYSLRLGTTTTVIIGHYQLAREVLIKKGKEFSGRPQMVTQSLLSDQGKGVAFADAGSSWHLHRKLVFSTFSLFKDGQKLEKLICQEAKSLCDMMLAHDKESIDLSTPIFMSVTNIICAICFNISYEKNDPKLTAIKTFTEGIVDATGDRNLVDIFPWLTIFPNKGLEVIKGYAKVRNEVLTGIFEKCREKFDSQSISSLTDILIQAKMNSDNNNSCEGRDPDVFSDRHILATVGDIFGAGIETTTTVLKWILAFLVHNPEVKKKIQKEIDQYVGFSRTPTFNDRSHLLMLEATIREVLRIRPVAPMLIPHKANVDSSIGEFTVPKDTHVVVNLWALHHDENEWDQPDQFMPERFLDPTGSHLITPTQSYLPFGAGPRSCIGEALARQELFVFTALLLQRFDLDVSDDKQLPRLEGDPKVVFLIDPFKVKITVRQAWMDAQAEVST
Test: Inhibition of rat microsomal 17-alpha-hydroxylase component of P450-17alpha
property: IC50 (µM)
Answer format: numeric, µM implied, no suffix.

Some solved cases for reference:
>>> recorded_value("Oc1ccc(Cn2ccnc2)cc1")
72.1
>>> recorded_value("Clc1ccc(Cn2ccnc2)cc1Cl")
12.2

Now look at this entry.
Query: Give the measured IC50 of CC(=O)N1CCN(c2ccc(OCC3COC(Cn4ccnc4)(c4ccc(Cl)cc4Cl)O3)cc2)CC1 (stereo not drawn) [KETOCONAZOLE] .
Result: 3.76

----------
Target: Steroid 17-alpha-hydroxylase/17,20 lyase (Rattus norvegicus)
Assay: Inhibition of rat microsomal 17,20-lyase component of P450-17alpha
property: IC50 (µM)

Some solved cases for reference:
>>> recorded_value("Clc1cc(Cl)cc(Cn2ccnc2)c1")
3.34
>>> recorded_value("Fc1ccc(Cn2ccnc2)cc1")
18.4
>>> recorded_value("Brc1ccc(Cn2ccnc2)cc1")
6.76
>>> recorded_value("N#Cc1ccc(Cn2ccnc2)cc1")
7.67
>>> recorded_value("Fc1ccc(Cn2ccnc2)cc1F")
9.6

(a) Brc1cc(Br)cc(Cn2ccnc2)c1
(b) O=[N+]([O-])c1ccc(Cn2ccnc2)cc1
(c) FC(F)(F)c1cc(Cn2ccnc2)cc(C(F)(F)F)c1
Query: Rank order required: IC50, descending. Answer by listing the labels in the requested order.
Result: c, b, a
(c: 19.5 µM, b: 7.17 µM, a: 3.16 µM)
